- assayed system: UniProt P14902
- Sequence (P14902 whole entry): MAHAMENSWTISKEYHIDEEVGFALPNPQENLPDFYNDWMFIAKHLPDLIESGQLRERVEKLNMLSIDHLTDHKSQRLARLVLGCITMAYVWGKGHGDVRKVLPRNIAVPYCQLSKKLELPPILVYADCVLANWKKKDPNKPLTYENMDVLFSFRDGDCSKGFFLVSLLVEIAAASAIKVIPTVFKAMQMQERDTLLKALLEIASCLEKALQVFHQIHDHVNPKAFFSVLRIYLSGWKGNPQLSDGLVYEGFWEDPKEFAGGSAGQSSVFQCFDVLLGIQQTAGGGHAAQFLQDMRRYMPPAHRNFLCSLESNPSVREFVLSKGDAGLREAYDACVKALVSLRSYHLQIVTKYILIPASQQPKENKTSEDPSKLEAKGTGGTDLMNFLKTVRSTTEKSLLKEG
- assay procedure: Assessment of human IDO-1 inhibitory activity in HEK cells (human IDO1/HEK293 cells, kynurenine read-out with Ehrlich reagent, absorbance 490 nm)
- Type: cell-based
- Design: expressed in transfected cells
- measurement parameters: HEK Human IDO-1 cellular assay
quantity measured: IC50

Study these solved cases before continuing.
Lookup: What value of IC50 has been recorded for this entry: CC[C@@H](CC(=O)O)c1ccc(N2CCOC[C@@H]2C(C)C)c(NC(=O)Nc2cc(C)on2)c1 (single isomer, unassigned) [Example 77]
Found: > 50 nM

Lookup: Same read-out for CCC(CC(=O)O)c1cc(F)c(N(CC(C)C)CC(C)C)c(NC(=O)Cc2ccc(C)cc2)c1 (single isomer, unassigned) [980-1] ?
Found: < 5 nM

Next:
Lookup: What value of IC50 has been recorded for this entry: CCC(CC(=O)O)c1ccc(N(CC2CC2)C(C)C)c(Nc2ccc3nc(C)sc3c2)c1 (single isomer, unassigned) [Example 716]
Found: > 50 nM

Lookup: Same read-out for CCN(c1ccc(C(C)CC(=O)O)cc1Nc1ccc2nc(C)sc2c1)C1CCOCC1 (single isomer, unassigned) [Example 617] ?
Found: < 50 nM

Lookup: Same read-out for CC[C@H](CC(=O)O)c1ccc(N(CC(C)(C)O)C2CCCCC2)c(Nc2ccc(Cl)cc2)c1 (single isomer, unassigned) [Example 242] ?
Found: < 5 nM

Lookup: Same read-out for CCC(CC(=O)O)c1cc(F)c(N(CC(C)C)CC(C)C)c(NC(=O)Nc2ccc(Cl)cc2F)c1 (single isomer, unassigned) [981-1] ?
Found: < 5 nM
